# Protocol Text: spontaneous locomotor activity
# Assay type: in vivo, mice
# Condition Parameters: mouse, in vivo, ip; estimated; read-out: ED50, decrease of spontaneous locomotor activity
# Protocol: The high sedative activity of analgesics is considered an undesirable property, which may lead to an incorrect or ambiguous interpretation of the in vivo results. Moreover, it may limit the potential clinical application of new drug candidates. This test was carried out according to the procedure described elsewhere.[84] […] The number of light-beam crossings was counted in each group during the next 30 min in 10 min intervals.
Measured Property: ED50 at 30 min
Number first, unit second.

INPUT: Item under review: `N#Cc1ccc(-c2ccc(OCCCN3CCC(c4ccncc4)CC3)cc2)cc1` . Reported ED50 at 30 min?
OUTPUT: 22 mg/kg
